- Test system: NK-92 (IL-2 2.5 ng/mL);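 note: normalised to DMSO-only wells as negative and benzethonium chloride as positive control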
- ASSAY_PROCEDURE: percent inhibition of viability; higher = more inhibition
- CONDITION_CONTEXT: 72 h; 100 nM
READOUT: percent inhibition of viability (%)
A number alone suffices; assume %.

Consider the reported percent inhibition of viability for these compounds:
CNC(=O)c1cccc(-c2ccc3c(N4CCOC[C@@H]4C)nc(N4CCOC[C@@H]4C)nc3n2)c1 [AZD2014] (max concentration tested 10000 nM) | 29.1
CCn1cc(-c2ccnc3[nH]c(-c4cccc(CN(C)C)c4)cc23)c(-c2ccc(NC(=O)N(C)C)cc2)n1 (max concentration tested 1000 nM) | 28.9
Cc1cc(C)c(CNC(=O)c2cc(-c3ccc(CN4CCOCC4)cc3)cc3c2cnn3C2CCCC2)c(=O)[nH]1 [EPZ-5687] (max concentration tested 10000 nM) | -11.1

Input line: Please report the measured percent inhibition of viability for N#CC[C@H](C1CCCC1)n1cc(-c2ncnc3[nH]ccc23)cn1 [Ruxolitinib] (max concentration tested 10000 nM) tested on NK-92 (IL-2 2.5 ng/mL).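 Note: normalised to DMSO-only wells as negative and benzethonium chloride as positive control.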
Output line: 54.9

Attribution: the supplement of paper PMC5908809
